# Test system: ChaGo-K-1
# ASSAY DETAILS: relative viability (nuclei count vs DMSO), 5 days (fraction); higher = more cells survive
# CONDITION CONTEXT: first compound 0.04 µM
Classify by relative viability. Ranges: one: < 0.5; two: ≥ 0.5 and < 0.9; three: ≥ 0.9

Query: For COc1cc(N2CCC(C(N)=O)CC2)ccc1Nc1nc(N)c(Cl)c(Nc2ccccc2S(=O)(=O)C(C)C)n1 [HG-5-88-01] + CC(C)C[C@H](NC(=O)[C@H](Cc1ccccc1)NC(=O)c1cnccn1)B(O)O [Bortezomib] (partner 0.002 µM) , which relative viability bin applies?
Response: three

Query: Can you check Clc1ccc(Nc2nnc(Cc3ccncc3)c3ccccc23)cc1 [Vatalanib] + C[C@@H](Oc1cc(-c2cnn(C3CCNCC3)c2)cnc1N)c1c(Cl)ccc(F)c1Cl [Crizotinib] (partner 1 µM) next?
Response: three

Query: Can you check C[C@@H]1CN(CC(=O)Nc2ccc3c(c2)Cc2cccc(-c4cc(=O)cc(N5CCOCC5)o4)c2S3)C[C@H](C)O1 + CCNC(=O)c1noc(-c2cc(C(C)C)c(O)cc2O)c1-c1ccc(CN2CCOCC2)cc1 [Luminespib] (partner 0.01 µM) next?
Response: two

Query: Can you check COc1cc(N2CCC(C(N)=O)CC2)ccc1Nc1nc(N)c(Cl)c(Nc2ccccc2S(=O)(=O)C(C)C)n1 [HG-5-88-01] + CCNC(=O)c1noc(-c2cc(C(C)C)c(O)cc2O)c1-c1ccc(CN2CCOCC2)cc1 [Luminespib] (partner 0.01 µM) next?
Response: two

Query: Can you check Clc1ccc(Nc2nnc(Cc3ccncc3)c3ccccc23)cc1 [Vatalanib] + CC(=O)Nc1cccc(-n2c(=O)n(C3CC3)c(=O)c3c(Nc4ccc(I)cc4F)n(C)c(=O)c(C)c32)c1 [Trametinib] (partner 0.02 µM) next?
Response: two

Query: Can you check Clc1ccc(Nc2nnc(Cc3ccncc3)c3ccccc23)cc1 [Vatalanib] + Cc1cc(Nc2cc(N3CCN(C)CC3)nc(Sc3ccc(NC(=O)C4CC4)cc3)n2)n[nH]1 [Tozasertib] (partner 0.1 µM) next?
Response: one

Query: Can you check Clc1ccc(Nc2nnc(Cc3ccncc3)c3ccccc23)cc1 [Vatalanib] + NC(=O)Nc1cc(-c2cccc(F)c2)sc1C(=O)N[C@H]1CCCNC1 [AZD7762] (partner 0.2 µM) next?
Response: three

Query: Can you check Clc1ccc(Nc2nnc(Cc3ccncc3)c3ccccc23)cc1 [Vatalanib] + Nc1nc2[nH]cc(CCc3ccc(C(=O)N[C@@H](CCC(=O)O)C(=O)O)cc3)c2c(=O)[nH]1 [Pemetrexed] (partner 0.2 µM) next?
Response: one

----------
# System: NCI-H650
# ASSAY DETAILS: relative viability (nuclei count vs DMSO), 5 days (fraction); higher = more cells survive
# CONDITION CONTEXT: first compound 0.3162 µM
So basically, if relative viability comes in under 0.5 it's Yes, and if it's 0.5 or more it's No.

Query: Determine whether this compound shows relative viability lower than 0.5 (ties excluded): CC(C)Oc1cc(Nc2nc(N[C@@H](C)c3ccc(F)cn3)ncc2Cl)n[nH]1 [AZ23] + Cc1nc(NC(=O)N2CCC[C@H]2C(N)=O)sc1-c1ccnc(C(C)(C)C(F)(F)F)c1 [Alpelisib] (partner 2 µM)
Response: No

Query: Can you check CC(C)Oc1cc(Nc2nc(N[C@@H](C)c3ccc(F)cn3)ncc2Cl)n[nH]1 [AZ23] + C[C@@H](Oc1cc(-c2cnn(C3CCNCC3)c2)cnc1N)c1c(Cl)ccc(F)c1Cl [Crizotinib] (partner 1 µM) next?
Response: No

Query: Can you check CC(C)Oc1cc(Nc2nc(N[C@@H](C)c3ccc(F)cn3)ncc2Cl)n[nH]1 [AZ23] + N=C(N)NC(=N)NCCc1ccccc1 [Phenformin] (partner 250 µM) next?
Response: Yes

Query: Can you check CC(C)Oc1cc(Nc2nc(N[C@@H](C)c3ccc(F)cn3)ncc2Cl)n[nH]1 [AZ23] + CC(=O)c1c(C)c2cnc(Nc3ccc(N4CCNCC4)cn3)nc2n(C2CCCC2)c1=O [Palbociclib] (partner 0.5 µM) next?
Response: Yes

Query: Can you check CC(C)Oc1cc(Nc2nc(N[C@@H](C)c3ccc(F)cn3)ncc2Cl)n[nH]1 [AZ23] + COc1cccc2cc(-c3nc([C@H]4CC[C@H](C(=O)O)CC4)n4ncnc(N)c34)[nH]c12 [OSI-027] (partner 0.5 µM) next?
Response: No

Query: Can you check CC(C)Oc1cc(Nc2nc(N[C@@H](C)c3ccc(F)cn3)ncc2Cl)n[nH]1 [AZ23] + C[C@]1(O)C[C@@H](c2nc(-c3ccc4ccc(-c5ccccc5)nc4c3)c3c(N)nccn32)C1 [Linsitinib] (partner 1 µM) next?
Response: No

Query: Can you check CC(C)Oc1cc(Nc2nc(N[C@@H](C)c3ccc(F)cn3)ncc2Cl)n[nH]1 [AZ23] + Cc1nc(Nc2ncc(C(=O)Nc3c(C)cccc3Cl)s2)cc(N2CCN(CCO)CC2)n1 [Dasatinib] (partner 0.075 µM) next?
Response: Yes

----------
# Test system: NCI-H2009
# ASSAY DETAILS: relative viability (nuclei count vs DMSO), 5 days (fraction); higher = more cells survive
# CONDITION CONTEXT: first compound 0.4 µM
So basically, if relative viability comes in under 0.7 it's yes (1), and if it's 0.7 or more it's no (0).

Query: Determine whether this compound shows relative viability lower than 0.7 (ties excluded): C[C@@H]1CN(CC(=O)Nc2ccc3c(c2)Cc2cccc(-c4cc(=O)cc(N5CCOCC5)o4)c2S3)C[C@H](C)O1 + COc1cccc2cc(-c3nc([C@H]4CC[C@H](C(=O)O)CC4)n4ncnc(N)c34)[nH]c12 [OSI-027] (partner 0.5 µM)
Response: yes (1)

Query: Can you check C[C@@H]1CN(CC(=O)Nc2ccc3c(c2)Cc2cccc(-c4cc(=O)cc(N5CCOCC5)o4)c2S3)C[C@H](C)O1 + CC(=O)Nc1cccc(-n2c(=O)n(C3CC3)c(=O)c3c(Nc4ccc(I)cc4F)n(C)c(=O)c(C)c32)c1 [Trametinib] (partner 0.02 µM) next?
Response: yes (1)

Query: Can you check Clc1ccc(Nc2nnc(Cc3ccncc3)c3ccccc23)cc1 [Vatalanib] + N=C(N)NC(=N)NCCc1ccccc1 [Phenformin] (partner 250 µM) next?
Response: yes (1)

Query: Can you check COc1cc(N2CCC(C(N)=O)CC2)ccc1Nc1nc(N)c(Cl)c(Nc2ccccc2S(=O)(=O)C(C)C)n1 [HG-5-88-01] + COc1cccc2cc(-c3nc([C@H]4CC[C@H](C(=O)O)CC4)n4ncnc(N)c34)[nH]c12 [OSI-027] (partner 0.5 µM) next?
Response: yes (1)

Query: Can you check C[C@@H]1CN(CC(=O)Nc2ccc3c(c2)Cc2cccc(-c4cc(=O)cc(N5CCOCC5)o4)c2S3)C[C@H](C)O1 + COc1cc2c(Oc3ccc(NC(=O)C4(C(=O)Nc5ccc(F)cc5)CC4)cc3F)ccnc2cc1OCCCN1CCOCC1 [Foretinib] (partner 0.25 µM) next?
Response: no (0)

Query: Can you check COc1cc(N2CCC(C(N)=O)CC2)ccc1Nc1nc(N)c(Cl)c(Nc2ccccc2S(=O)(=O)C(C)C)n1 [HG-5-88-01] + CC(=O)Nc1cccc(-n2c(=O)n(C3CC3)c(=O)c3c(Nc4ccc(I)cc4F)n(C)c(=O)c(C)c32)c1 [Trametinib] (partner 0.02 µM) next?
Response: yes (1)

Query: Can you check COc1cc(N2CCC(C(N)=O)CC2)ccc1Nc1nc(N)c(Cl)c(Nc2ccccc2S(=O)(=O)C(C)C)n1 [HG-5-88-01] + CS(=O)(=O)CCNCc1ccc(-c2ccc3ncnc(Nc4ccc(OCc5cccc(F)c5)c(Cl)c4)c3c2)o1 [Lapatinib] (partner 2 µM) next?
Response: no (0)

----------
# System: LCLC-103H
# ASSAY DETAILS: relative viability (nuclei count vs DMSO), 5 days (fraction); higher = more cells survive
# CONDITION CONTEXT: first compound 0.04 µM
What relative viability was measured for each of the following?

Query: Please tell me: relative viability of Clc1ccc(Nc2nnc(Cc3ccncc3)c3ccccc23)cc1 [Vatalanib] + COc1cc2c(Oc3ccc(NC(=O)C4(C(=O)Nc5ccc(F)cc5)CC4)cc3F)ccnc2cc1OCCCN1CCOCC1 [Foretinib] (partner 0.25 µM) , system LCLC-103H?
Response: 0.829

Query: Can you check COc1cc(N2CCC(C(N)=O)CC2)ccc1Nc1nc(N)c(Cl)c(Nc2ccccc2S(=O)(=O)C(C)C)n1 [HG-5-88-01] + O=C(CCCCCCC(=O)Nc1ccccc1)NO [Vorinostat] (partner 1 µM) next?
Response: 0.826

----------
# Tested on: SK-MES-1
# ASSAY DETAILS: relative viability (nuclei count vs DMSO), 5 days (fraction); higher = more cells survive
# CONDITION CONTEXT: first compound 4 µM
RESULT TYPE: relative viability
Lab note: record the figure alone, no unit after it.

Query: Please tell me: relative viability of C[C@@H]1CN(CC(=O)Nc2ccc3c(c2)Cc2cccc(-c4cc(=O)cc(N5CCOCC5)o4)c2S3)C[C@H](C)O1 + COc1cc2c(Oc3ccc(NC(=O)C4(C(=O)Nc5ccc(F)cc5)CC4)cc3F)ccnc2cc1OCCCN1CCOCC1 [Foretinib] (partner 0.25 µM) , system SK-MES-1?
Response: 0.746

Query: Can you check Clc1ccc(Nc2nnc(Cc3ccncc3)c3ccccc23)cc1 [Vatalanib] + CS(=O)(=O)N1CCN(Cc2cc3nc(-c4cccc5[nH]ncc45)nc(N4CCOCC4)c3s2)CC1 [Pictilisib] (partner 1 µM) next?
Response: 0.365

Query: Can you check C[C@@H]1CN(CC(=O)Nc2ccc3c(c2)Cc2cccc(-c4cc(=O)cc(N5CCOCC5)o4)c2S3)C[C@H](C)O1 + Cc1nc(NC(=O)N2CCC[C@H]2C(N)=O)sc1-c1ccnc(C(C)(C)C(F)(F)F)c1 [Alpelisib] (partner 2 µM) next?
Response: 0.813

Query: Can you check COc1cc(N2CCC(C(N)=O)CC2)ccc1Nc1nc(N)c(Cl)c(Nc2ccccc2S(=O)(=O)C(C)C)n1 [HG-5-88-01] + CC(=O)Nc1cccc(-n2c(=O)n(C3CC3)c(=O)c3c(Nc4ccc(I)cc4F)n(C)c(=O)c(C)c32)c1 [Trametinib] (partner 0.02 µM) next?
Response: 0.619

Query: Can you check COc1cc(N2CCC(C(N)=O)CC2)ccc1Nc1nc(N)c(Cl)c(Nc2ccccc2S(=O)(=O)C(C)C)n1 [HG-5-88-01] + C[C@@H](Oc1cc(-c2cnn(C3CCNCC3)c2)cnc1N)c1c(Cl)ccc(F)c1Cl [Crizotinib] (partner 1 µM) next?
Response: 0.923

Query: Can you check Clc1ccc(Nc2nnc(Cc3ccncc3)c3ccccc23)cc1 [Vatalanib] + Cc1nc(Nc2ncc(C(=O)Nc3c(C)cccc3Cl)s2)cc(N2CCN(CCO)CC2)n1 [Dasatinib] (partner 0.075 µM) next?
Response: 0.34

Query: Can you check COc1cc(N2CCC(C(N)=O)CC2)ccc1Nc1nc(N)c(Cl)c(Nc2ccccc2S(=O)(=O)C(C)C)n1 [HG-5-88-01] + COc1cccc2cc(-c3nc([C@H]4CC[C@H](C(=O)O)CC4)n4ncnc(N)c34)[nH]c12 [OSI-027] (partner 0.5 µM) next?
Response: 0.4

Query: Can you check COc1cc(N2CCC(C(N)=O)CC2)ccc1Nc1nc(N)c(Cl)c(Nc2ccccc2S(=O)(=O)C(C)C)n1 [HG-5-88-01] + CS(=O)(=O)N1CCN(Cc2cc3nc(-c4cccc5[nH]ncc45)nc(N4CCOCC4)c3s2)CC1 [Pictilisib] (partner 1 µM) next?
Response: 0.299

Query: Can you check COc1cc(N2CCC(C(N)=O)CC2)ccc1Nc1nc(N)c(Cl)c(Nc2ccccc2S(=O)(=O)C(C)C)n1 [HG-5-88-01] + Cc1cc(Nc2cc(N3CCN(C)CC3)nc(Sc3ccc(NC(=O)C4CC4)cc3)n2)n[nH]1 [Tozasertib] (partner 0.1 µM) next?
Response: 0.158

Query: Can you check Clc1ccc(Nc2nnc(Cc3ccncc3)c3ccccc23)cc1 [Vatalanib] + Nc1nc2[nH]cc(CCc3ccc(C(=O)N[C@@H](CCC(=O)O)C(=O)O)cc3)c2c(=O)[nH]1 [Pemetrexed] (partner 0.2 µM) next?
Response: 0.787

Query: Can you check COc1cc(N2CCC(C(N)=O)CC2)ccc1Nc1nc(N)c(Cl)c(Nc2ccccc2S(=O)(=O)C(C)C)n1 [HG-5-88-01] + N=C(N)NC(=N)NCCc1ccccc1 [Phenformin] (partner 250 µM) next?
Response: 0.643

Query: Can you check C[C@@H]1CN(CC(=O)Nc2ccc3c(c2)Cc2cccc(-c4cc(=O)cc(N5CCOCC5)o4)c2S3)C[C@H](C)O1 + O=C(c1cc(Cc2n[nH]c(=O)c3ccccc23)ccc1F)N1CCN(C(=O)C2CC2)CC1 [Olaparib] (partner 8 µM) next?
Response: 0.252

Query: Can you check Clc1ccc(Nc2nnc(Cc3ccncc3)c3ccccc23)cc1 [Vatalanib] + Cc1cc(Nc2cc(N3CCN(C)CC3)nc(Sc3ccc(NC(=O)C4CC4)cc3)n2)n[nH]1 [Tozasertib] (partner 0.1 µM) next?
Response: 0.803

Query: Can you check Clc1ccc(Nc2nnc(Cc3ccncc3)c3ccccc23)cc1 [Vatalanib] + CC(=O)Nc1cccc(-n2c(=O)n(C3CC3)c(=O)c3c(Nc4ccc(I)cc4F)n(C)c(=O)c(C)c32)c1 [Trametinib] (partner 0.02 µM) next?
Response: 0.507

Query: Can you check COc1cc(N2CCC(C(N)=O)CC2)ccc1Nc1nc(N)c(Cl)c(Nc2ccccc2S(=O)(=O)C(C)C)n1 [HG-5-88-01] + C[C@]1(O)C[C@@H](c2nc(-c3ccc4ccc(-c5ccccc5)nc4c3)c3c(N)nccn32)C1 [Linsitinib] (partner 1 µM) next?
Response: 1.14

Query: Can you check Clc1ccc(Nc2nnc(Cc3ccncc3)c3ccccc23)cc1 [Vatalanib] + CCNC(=O)c1noc(-c2cc(C(C)C)c(O)cc2O)c1-c1ccc(CN2CCOCC2)cc1 [Luminespib] (partner 0.01 µM) next?
Response: 0.6

Query: Can you check C[C@@H]1CN(CC(=O)Nc2ccc3c(c2)Cc2cccc(-c4cc(=O)cc(N5CCOCC5)o4)c2S3)C[C@H](C)O1 + Nc1nc2[nH]cc(CCc3ccc(C(=O)N[C@@H](CCC(=O)O)C(=O)O)cc3)c2c(=O)[nH]1 [Pemetrexed] (partner 0.2 µM) next?
Response: 0.808

Data provenance is the supplement of paper PMC10307832.
